These measurements were taken from patent EP4635500A1.

- System: Klebsiella pneumoniae
- ASSAY NAME: MIC, broth microdilution, standard strains and Japanese clinical isolates (Example 5, Table 4)
- Format: cell-based
- RUN PARAMETERS: KUB3631 Klebsiella pneumoniae Clinical isolate, IMP-1
MEASUREMENT LABEL: MIC (µg/mL)
Write the answer as a number in µg/mL, unit excluded.

MOLECULE | MIC / µg/mL
CC(C)(O/N=C(\C(=O)N[C@@H]1C(=O)N2C(C(=O)[O-])=C(C[N+]3(CCNC(=O)c4ccc(O)c(O)c4Cl)CCCC3)CS[C@H]12)c1csc(N)n1)C(=O)O [Cefiderocol, cefiderocol] | 2

Write down MIC measured for item C[C@@H](O)[C@H]1C(=O)N2C(C(=O)O)=C(SCCN=CN)C[C@H]12 [Imipenem, imipenem]
1

Write down MIC measured for item C[C@@H](O)[C@H]1C(=O)N2C(C(=O)O)=C(S[C@@H]3CN[C@H](C(=O)N(C)C)C3)[C@H](C)[C@H]12 [MEPM, meropenem]
4

====

- System: Enterobacterales
- ASSAY NAME: MIC, broth microdilution, CDC/FDA Antibiotic Resistance Isolate Bank (Example 7, Tables 8, 11, 12)
- Type: cell-based
- RUN PARAMETERS: Escherichia coli, KUB No. 5768, AR Bank # 372; read-out: MIC
MIC values, listed per item
Write the answer as a number in µg/mL, unit excluded.

Examples with answers:
STRUCTURE AS SMILES | MIC [µg/mL]
NCC[C@H](O)C(=O)N[C@@H]1C[C@H](N)[C@@H](O[C@H]2O[C@H](CN)[C@@H](O)[C@H](O)[C@H]2O)[C@H](O)[C@H]1O[C@H]1O[C@H](CO)[C@@H](O)[C@H](N)[C@H]1O | 2
C[C@H]1COc2c(N3CCN(C)CC3)c(F)cc3c(=O)c(C(=O)O)cn1c23 | 16
CC(C)(O/N=C(\C(=O)N[C@@H]1C(=O)N2C(C(=O)[O-])=C(C[N+]3(CCNC(=O)c4ccc(O)c(O)c4Cl)CCCC3)CS[C@H]12)c1csc(N)n1)C(=O)O | 1

Write down MIC measured for item CN(C)c1cc(NC(=O)CNC(C)(C)C)c(O)c2c1C[C@H]1C[C@H]3[C@H](N(C)C)C(O)=C(C(N)=O)C(=O)[C@@]3(O)C(O)=C1C2=O
0.5

====

- System: P. aeruginosa
- ASSAY NAME: MIC, broth microdilution, CDC/FDA Antibiotic Resistance Isolate Bank (Example 7, Tables 10, 15)
- Format: cell-based
- RUN PARAMETERS: Pseudomonas aeruginosa, P. aeruginosa KUB No. 5681, AR Bank # 248; read-out: MIC
MIC values, listed per item
Write the answer as a number in µg/mL, unit excluded.

Examples with answers:
STRUCTURE AS SMILES | MIC / µg/mL
CC(C)(O/N=C(\C(=O)N[C@@H]1C(=O)N2C(C(=O)[O-])=C(C[N+]3(CCNC(=O)c4ccc(O)c(O)c4Cl)CCCC3)CS[C@H]12)c1csc(N)n1)C(=O)O | 0.5
C[C@H]1COc2c(N3CCN(C)CC3)c(F)cc3c(=O)c(C(=O)O)cn1c23 | 16
NCC[C@H](O)C(=O)N[C@@H]1C[C@H](N)[C@@H](O[C@H]2O[C@H](CN)[C@@H](O)[C@H](O)[C@H]2O)[C@H](O)[C@H]1O[C@H]1O[C@H](CO)[C@@H](O)[C@H](N)[C@H]1O | 64

Write down MIC measured for item C[C@H]1[C@H](NC(=O)/C(=N\OC(C)(C)C(=O)O)c2csc(N)n2)C(=O)N1S(=O)(=O)O
4

Write down MIC measured for item CN(C)c1cc(NC(=O)CNC(C)(C)C)c(O)c2c1C[C@H]1C[C@H]3[C@H](N(C)C)C(O)=C(C(N)=O)C(=O)[C@@]3(O)C(O)=C1C2=O
2

====

- Tested on: P. aeruginosa
- ASSAY NAME: MIC, broth microdilution, CDC/FDA Antibiotic Resistance Isolate Bank (Example 7, Tables 10, 15)
- Type: cell-based
- RUN PARAMETERS: Pseudomonas aeruginosa, P. aeruginosa KUB No. 5802, AR Bank # 459; read-out: MIC
MIC values, listed per item
Write the answer as a number in µg/mL, unit excluded.

Examples with answers:
STRUCTURE AS SMILES | UNIT STRING | MIC
CO/N=C(\C(=O)N[C@@H]1C(=O)N2C(C(=O)[O-])=C(C[n+]3ccn4ncccc43)CS[C@H]12)c1nsc(N)n1 | µg/mL | 32
CN(C)c1cc(NC(=O)CNC(C)(C)C)c(O)c2c1C[C@H]1C[C@H]3[C@H](N(C)C)C(O)=C(C(N)=O)C(=O)[C@@]3(O)C(O)=C1C2=O | µg/mL | 4
O=C(O)c1cn(C2CC2)c2cc(N3CCNCC3)c(F)cc2c1=O | µg/mL | 4
CC(C)(O/N=C(\C(=O)N[C@@H]1C(=O)N2C(C(=O)[O-])=C(C[N+]3(CCNC(=O)c4ccc(O)c(O)c4Cl)CCCC3)CS[C@H]12)c1csc(N)n1)C(=O)O | µg/mL | 0.12
NCC[C@H](O)C(=O)N[C@@H]1C[C@H](N)[C@@H](O[C@H]2O[C@H](CN)[C@@H](O)[C@H](O)[C@H]2O)[C@H](O)[C@H]1O[C@H]1O[C@H](CO)[C@@H](O)[C@H](N)[C@H]1O | µg/mL | 8

Write down MIC measured for item C[C@H]1COc2c(N3CCN(C)CC3)c(F)cc3c(=O)c(C(=O)O)cn1c23
8

====

- Tested on: A. baumannii
- ASSAY NAME: MIC, broth microdilution, CDC/FDA Antibiotic Resistance Isolate Bank (Example 7, Tables 9, 13, 14)
- Assay type: cell-based, Acinetobacter baumannii
- RUN PARAMETERS: Acinetobacter baumannii, KUB No. 5719, AR Bank #286; read-out: MIC
MEASUREMENT LABEL: MIC (µg/mL)
Write the answer as a number in µg/mL, unit excluded.

Examples with answers:
STRUCTURE AS SMILES | UNIT STRING | MIC
CC(C)(O/N=C(\C(=O)N[C@@H]1C(=O)N2C(C(=O)[O-])=C(C[N+]3(CCNC(=O)c4ccc(O)c(O)c4Cl)CCCC3)CS[C@H]12)c1csc(N)n1)C(=O)O | µg/mL | 0.5
C[C@H]1COc2c(N3CCN(C)CC3)c(F)cc3c(=O)c(C(=O)O)cn1c23 | µg/mL | 8
CO/N=C(\C(=O)N[C@@H]1C(=O)N2C(C(=O)[O-])=C(C[n+]3ccn4ncccc43)CS[C@H]12)c1nsc(N)n1 | µg/mL | 32

Write down MIC measured for item CN(C)c1cc(NC(=O)CNC(C)(C)C)c(O)c2c1C[C@H]1C[C@H]3[C@H](N(C)C)C(O)=C(C(N)=O)C(=O)[C@@]3(O)C(O)=C1C2=O
1

Write down MIC measured for item C[C@H]1[C@H](NC(=O)/C(=N\OC(C)(C)C(=O)O)c2csc(N)n2)C(=O)N1S(=O)(=O)O
32

====

MIC values, listed per item
- Test system: Enterobacterales
- ASSAY NAME: MIC, broth microdilution, CDC/FDA Antibiotic Resistance Isolate Bank (Example 7, Tables 8, 11, 12)
- Type: cell-based
- RUN PARAMETERS: Klebsiella pneumoniae, Klebsiella pneumoniae KUB No. 5809, AR Bank #504; read-out: MIC
Write the answer as a number in µg/mL, unit excluded.

Examples with answers:
COMPOUND | TARGET DESC | UNIT STRING | OBSERVED
CC(C)(O/N=C(\C(=O)N[C@@H]1C(=O)N2C(C(=O)[O-])=C(C[N+]3(CCNC(=O)c4ccc(O)c(O)c4Cl)CCCC3)CS[C@H]12)c1csc(N)n1)C(=O)O [Cefiderocol, cefiderocol] | Enterobacterales | µg/mL | 0.25
O=C(O)c1cn(C2CC2)c2cc(N3CCNCC3)c(F)cc2c1=O [Ciprofloxacin, ciprofloxacin] | Enterobacterales | µg/mL | 2
C[C@H]1COc2c(N3CCN(C)CC3)c(F)cc3c(=O)c(C(=O)O)cn1c23 [Levofloxacin, levofloxacin] | Enterobacterales | µg/mL | 0.5
C[C@H]1[C@H](NC(=O)/C(=N\OC(C)(C)C(=O)O)c2csc(N)n2)C(=O)N1S(=O)(=O)O [Aztreonam, aztreonam] | Enterobacterales | µg/mL | 32

Recall the reported MIC of NCC[C@H](O)C(=O)N[C@@H]1C[C@H](N)[C@@H](O[C@H]2O[C@H](CN)[C@@H](O)[C@H](O)[C@H]2O)[C@H](O)[C@H]1O[C@H]1O[C@H](CO)[C@@H](O)[C@H](N)[C@H]1O [Amikacin, amikacin] when tested on Enterobacterales.
2

====

MIC values, listed per item
- Tested on: Enterobacterales
- ASSAY NAME: MIC, broth microdilution, CDC/FDA Antibiotic Resistance Isolate Bank (Example 7, Tables 8, 11, 12)
- Assay type: cell-based
- RUN PARAMETERS: Enterobacter cloacae, KUB No. 5550, AR Bank# 53; read-out: MIC

Examples with answers:
COMPOUND | MIC
CC(C)(O/N=C(\C(=O)N[C@@H]1C(=O)N2C(C(=O)[O-])=C(C[N+]3(CCNC(=O)c4ccc(O)c(O)c4Cl)CCCC3)CS[C@H]12)c1csc(N)n1)C(=O)O [Cefiderocol, cefiderocol] | 0.12 mg/L
C[C@H]1COc2c(N3CCN(C)CC3)c(F)cc3c(=O)c(C(=O)O)cn1c23 [Levofloxacin, levofloxacin] | 32 mg/L
NCC[C@H](O)C(=O)N[C@@H]1C[C@H](N)[C@@H](O[C@H]2O[C@H](CN)[C@@H](O)[C@H](O)[C@H]2O)[C@H](O)[C@H]1O[C@H]1O[C@H](CO)[C@@H](O)[C@H](N)[C@H]1O [Amikacin, amikacin] | 64 mg/L

Kindly consider the entry below.
Write down MIC measured for item CO/N=C(\C(=O)N[C@@H]1C(=O)N2C(C(=O)[O-])=C(C[n+]3ccn4ncccc43)CS[C@H]12)c1nsc(N)n1 [Cefozopran, cefozopran]
> 64 mg/L
